Target: rAtACBP6 (Arabidopsis thaliana, UniProt P57752)
Construct: made in house; host or cells: Escherichia coli
Sequence (P57752 whole entry): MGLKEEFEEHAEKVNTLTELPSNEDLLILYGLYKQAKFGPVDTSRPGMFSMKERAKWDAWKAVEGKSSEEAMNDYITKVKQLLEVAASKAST
Assay: ITC of acyl-CoA esters binding to rAtACBP6
pKd: −log10 of the molar value.
endpoint label: pKd

compound_string=CCCCCCCCCCCCCC(=O)SCCNC(=O)CCNC(=O)[C@H](O)C(C)(C)COP(=O)(O)OP(=O)(O)OC[C@H]1O[C@@H](n2cnc3c(N)ncnc32)[C@H](O)[C@@H]1OP(=O)(O)O target_under_test="rAtACBP6 (Arabidopsis thaliana, UniProt P57752)" result_number=7.41

* * *

Target: rAtACBP4 (Arabidopsis thaliana, UniProt Q9MA55)
Sequence (Q9MA55 whole entry): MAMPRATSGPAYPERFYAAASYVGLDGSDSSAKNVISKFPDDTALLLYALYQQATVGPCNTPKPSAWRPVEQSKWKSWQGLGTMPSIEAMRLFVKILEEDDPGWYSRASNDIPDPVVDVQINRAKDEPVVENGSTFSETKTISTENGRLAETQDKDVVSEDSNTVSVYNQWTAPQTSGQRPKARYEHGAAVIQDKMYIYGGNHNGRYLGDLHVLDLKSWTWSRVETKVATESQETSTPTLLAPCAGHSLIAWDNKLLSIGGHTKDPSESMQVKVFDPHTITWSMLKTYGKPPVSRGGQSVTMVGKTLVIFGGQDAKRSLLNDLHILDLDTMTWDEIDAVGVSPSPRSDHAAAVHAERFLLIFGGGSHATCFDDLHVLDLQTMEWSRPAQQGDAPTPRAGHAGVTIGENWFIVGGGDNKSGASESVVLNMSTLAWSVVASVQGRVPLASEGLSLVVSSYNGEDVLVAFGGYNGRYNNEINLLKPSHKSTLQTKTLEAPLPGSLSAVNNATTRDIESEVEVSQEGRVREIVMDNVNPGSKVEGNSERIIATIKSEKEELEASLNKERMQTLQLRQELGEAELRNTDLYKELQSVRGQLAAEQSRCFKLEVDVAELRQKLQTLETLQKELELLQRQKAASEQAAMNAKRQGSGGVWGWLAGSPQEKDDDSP
Experiment: ITC of acyl-CoA esters binding to rAtACBP4
Conditions: ITC, 30°C, 10 mM sodium phosphate buffer pH 7.0; mean of three±S.D.; read-out: Kd
pKd: −log10 of the molar value.
endpoint label: pKd

compound_string=CCCCCCCCCCCCCCCC(=O)SCCNC(=O)CCNC(=O)[C@H](O)C(C)(C)COP(=O)(O)OP(=O)(O)OC[C@H]1O[C@@H](n2cnc3c(N)ncnc32)[C@H](O)[C@@H]1OP(=O)(O)O result_number=4.63
compound_string=CCCCC/C=C\C/C=C\CCCCCCCC(=O)SCCNC(=O)CCNC(=O)[C@H](O)C(C)(C)COP(=O)(O)OP(=O)(O)OC[C@H]1O[C@@H](n2cnc3c(N)ncnc32)[C@H](O)[C@@H]1OP(=O)(O)O result_number=4.13
